meta.source: patent US20240398970A1

Test system: NCI-N87 cell line
measurement_notes: Killing activity on NCI-N87 before and after enzyme digestion by cathepsin B system
Type: cell-based
condition_context: NCI-N87, 144 hours, after cathepsin B system pH 5.0, 37° C., 4 hours; read-out: IC50 (based on SN-38 equivalent) After Enzyme Digestion
measured_endpoint: pIC50
Answers are plain numbers, as −log10 of the molar value.

API: value(readout=pIC50, system=NCI-N87 cell line) for record CCc1c2c(nc3ccc(O)cc13)-c1cc3c(c(=O)n1C2)COC(=O)[C@]3(O)CC [SN-38, 7-ethyl-10-hydroxycamptothecin]
8.13
